Protocol: growth suppression of PTEN-deleted HCT116, pilot screen, cell-based, HCT116 clonal line, CellTiter-Glo (AID 824);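 note: 0% = 20 µM Hyamine control and 100% = vehicle cell control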
Test context: 60 h, at 10 µM, hits give low values
Inconclusive results are not listed.
Outcome measure: viability (%)
Only the number, expressed in %, is required.

Solved entries (count: 5):
Compound | Units label | viability
COCCNC(=O)NC1(C(F)(F)F)Oc2ccc(Cl)cc2O1 (configuration not stated) | % | 41.9
COc1ccc(CNC(=O)CSc2nnnn2-c2ccc(O)cc2)cc1 | % | 98.6
O=c1c2ccccc2[nH]c(=S)n1Cc1cccnc1 | % | 92.5
COc1ccc(-n2nnnc2S(=O)(=O)CC(=O)N2CCCCC2)cc1 | % | 2.74
COc1ccc(C(c2sc3nc(C)nn3c2O)N2CCC(C(N)=O)CC2)cc1OC (configuration not stated) | % | 96.2

Exercise: Using the record for CCOc1ccc(Cn2nnc(C(=O)NCc3ccccc3)c2N)cc1 , report its viability.
Key: 85.5

Exercise: Consider next the compound C=CCOC(=O)C1=C(C)NC(C)=C(C(=O)OCC=C)C1c1ccc(O)cc1 in the same way.
Key: 71

Exercise: Now give it for CCOc1ccc(NC(=O)CN2C(=O)COc3ccc(Cl)cc32)cc1 too.
Key: 90.1

Exercise: What do we get for CCOc1ccccc1C1N(c2ccc(OC)cc2)C(=O)C2CCCN21 (configuration not stated) ?
Key: 101

Exercise: Now the same for O=C(NCCN1C(=O)C2C3C=CC(C3)C2C1=O)Nc1cccnc1 (configuration not stated)
Key: 99.7

Exercise: Moving on to O=C(CCCOc1ccccc1)NCC1CCCO1 (configuration not stated)
Key: 91.5

Exercise: Now the same for CC1Cc2ccccc2N1C(=O)c1ccc2snnc2c1 (configuration not stated)
Key: 96.8
